Source of measurements: PubChem BioAssay (NCI)

Measured growth inhibition by item
- experimental.details: NCI Yeast Anticancer Drug Screen. Data for the bub3 strain (AID 167)
- measurement.conditions: S. cerevisiae bub3 mutant strain, at 50.0 µM, hits give high values
About 79,000 compounds went through this panel and 15% of them were active in at least one assay; those are over-represented in the sample as a whole.
measure.name: growth inhibition (%)

                                    compound  meas_value
 0                    Clc1ccccc1OCc1cnc[nH]1       -9.85
 1             COc1cc2c(cc1C)C(C)(C)CCC2(C)C        20.6
 2  O=c1c(Br)nn(C(c2ccccc2)c2ccccc2)c(=O)n1C(c1ccccc1)c1ccccc1         3.6
 3  COc1ccc(-c2onc(-c3ccc([N+](=O)[O-])cc3)c2C2=NCCCN2)cc1       -1.95
 4  O=C1c2c(-c3ccccc3)ccc(-c3ccccc3)c2C(=O)c2c(-c3ccccc3)ccc(-c3ccccc3)c21        -2.6
 5  CCOP(=O)(OCC)C(Cc1cn(S(=O)(=O)c2ccc(C)cc2)cn1)C(=O)O (configuration not stated)        21.4
 6  CC(=O)OC(c1ccccc1)C1(c2ccccc2)OCCO1 (configuration not stated)         1.4
 7                  CC(C)COC(=O)C(=O)OCC(C)C       -5.05
 8                   O=c1c2c(sc3ccccc13)CCC2       -11.8
 9             O=C1CSc2nc3ccc(Br)cc3c(=O)n21        18.6
10             C[N+]1(CSC(=O)c2ccccc2)CCCCC1       -9.75
11  CN(C)c1ccc(NC2COc3ccccc3C2=O)cc1 (configuration not stated)          67

---

Measured growth inhibition by item
- experimental.details: NCI Yeast Anticancer Drug Screen. Data for the mec2-1 strain (AID 157)
- measurement.conditions: S. cerevisiae mec2-1 strain, at 50.0 µM, hits give high values
Compounds without any hit were thinned out: in the full panel of roughly 79,000, 15% have a hit.
measure.name: growth inhibition (%)

                                    molecule       measure_name  result_unit  meas_value
 0  Cc1cc(=O)[nH]c(NN2C(Cl)C(=O)C2c2c(O)ccc3ccccc23)n1 (configuration not stated)  growth inhibition            %       -10.6
 1         CCc1nc(N)nc(-c2nc(N)nc(CC)c2C)c1C  growth inhibition            %        -2.4
 2      O=C(Nc1ccc2ccccc2c1)c1ccc(Cl)c(Cl)c1  growth inhibition            %        29.6
 3  COc1cc2oc(=O)ccc2cc1[C@@H]1OC(=O)[C@@]2(C)O[C@@H]12  growth inhibition            %        -6.3
 4            COc1cc(OC)c(OCc2ccccc2)c(OC)c1  growth inhibition            %        0.25
 5  Cc1cc2nc(C(O)C(O)C(O)C(O)c3nc4cc(C)c(C)cc4[nH]3)[nH]c2cc1C (configuration not stated)  growth inhibition            %        3.35
 6  CCCC(C)C(=O)OCCOCC (configuration not stated)  growth inhibition            %         2.8
 7  Cc1ccc(/C=C2\CCCC(C(NO)c3ccc(C)cc3)C2=NO)cc1 (configuration not stated)  growth inhibition            %       -20.2
 8  CC(=O)Oc1cccc(OC(=O)Nc2ccc(C)c(NC(=O)Oc3cccc(OC(C)=O)c3)c2)c1  growth inhibition            %        22.6
 9  Cc1cc(=O)oc2cc(OCCCOc3ccc4c(C)cc(=O)oc4c3)ccc12  growth inhibition            %        5.45
10  CCN(CC)CCN1C(=O)C(=O)N(c2cccc3ccccc23)C1=O  growth inhibition            %       -15.7
11  CC(C)[O-].CC(C)[O-].O=c1cccccc1[O-].O=c1cccccc1[O-].[Ti+4]  growth inhibition            %         0.9
12  CC(C)(Oc1ccc(C(=O)c2ccc(Cl)cc2)cc1Cl)C(=O)N1CCN(CCO)CC1  growth inhibition            %       -8.65
13            S=C(NCN1CCNCC1)C(=S)NCN1CCNCC1  growth inhibition            %       -9.55
14  CCOC(=O)c1cc2cc(Cc3ccc4[nH]c(C(=O)OCC)cc4c3)ccc2[nH]1  growth inhibition            %       -21.4
15       O=C(O)c1ccc(C2=Cc3cc(Cl)ccc3OC2)cc1  growth inhibition            %        -5.1
16  O=[N+]([O-])c1ccc(N/N=C2\C=CCCC2)c([N+](=O)[O-])c1  growth inhibition            %       -11.9
17                  NNC(=O)c1nc[nH]c1C(=O)NN  growth inhibition            %        -2.6
18           CCC(C)(C)c1ccc([N+](=O)[O-])cc1  growth inhibition            %         8.8
19                    CNc1c(F)cc(C(=O)O)cc1F  growth inhibition            %         4.5
20  CC1CN=C(N(C(=O)Nc2ccc(F)c(Cl)c2)c2ccccc2)S1 (configuration not stated)  growth inhibition            %        14.3
21  CC(Oc1ccc(Br)cc1Br)C(=O)O (configuration not stated)  growth inhibition            %       -16.2
22              CN(C)S(=O)(=O)N1CCCc2ccccc21  growth inhibition            %         8.8
23      O=C(O)c1c(Cl)c(Cl)c(Cl)c(C(=O)O)c1Cl  growth inhibition            %         2.2
24      c1ccc(CCn2c(-c3ccccn3)nc3ccccc32)nc1  growth inhibition            %       -4.25
25  N#CC(c1ccccc1)[N+](=O)[O-] (configuration not stated)  growth inhibition            %       -5.05
26              Cc1ccc(S(=O)(=O)N2CCOCC2)cc1  growth inhibition            %       -20.1
27                    C/C=C/c1nc2ccccc2[nH]1  growth inhibition            %       -2.45
28  CCCCCCCCCCCCCCCCCC(=O)N/N=C/c1ccc(Cl)cc1  growth inhibition            %       -8.95
29  O=C(N=c1ccc2nc(=O)[nH]n(O)c-2c1)C(F)(F)F  growth inhibition            %         5.5
30               Nc1cc(Cl)ccc1N1C(=O)C=CC1=O  growth inhibition            %       -14.8
31  c1cc(-c2cc(-c3cc(-c4ccncc4)n[nH]3)[nH]n2)ccn1  growth inhibition            %        -2.6
32  CN(C)c1ccc(/[N+]([O-])=C/C=C/C=[N+](/[O-])c2ccc(N(C)C)cc2)cc1  growth inhibition            %         3.8
33      CCC(=O)Oc1c2ccsc2c(OC(=O)CC)c2ccsc12  growth inhibition            %         6.6
34  COc1ccc(N2C(=O)C3c4[nH]c5ccc(OC)cc5c4C4CCC(C(C)(C)C)CC4C3C2=O)cc1 (configuration not stated)  growth inhibition            %        12.6
35   CCCCc1ccc(-n2c(C)nc3[nH]cc(C)c3c2=N)cc1  growth inhibition            %       -10.9
36         Cc1nc(C#N)c(=N)n(CCCO)c1-c1ccccc1  growth inhibition            %       -8.45
37  CC(=O)/C(=C\c1ccc([N+](=O)[O-])o1)C(=O)CCN(C)C  growth inhibition            %        38.4
38   CCCCOC(=O)c1ccc(NC(=O)Nc2ccc(SC)cc2)cc1  growth inhibition            %         1.8
39              CCOC(=O)c1cc(NC(C)=O)c(C)n1C  growth inhibition            %         8.6
40  Cc1[nH]n(-c2ccccc2)c(=O)c1N=Nc1cccc(C(F)(F)F)c1  growth inhibition            %        14.7
41            COC(=O)CSc1n[nH]c(-c2ccccc2)n1  growth inhibition            %       -7.25
42                       O=Cc1c[nH]c2ccccc12  growth inhibition            %        9.95
43           COC(=O)c1nnn(-c2ccc(Cl)cc2C)c1N  growth inhibition            %       -1.95
44  CC(=O)OC1CC[C@@]2(C)C(CC[C@]3(C)C2CC=C2[C@@H]4C(C)[C@H](C)CCC4(C)CCC23C)[C@@]1(C)C(=O)O (some centres not stated)  growth inhibition            %        14.8
45  CCOC(=O)C(NC(=O)NCc1ccc(F)cc1)C(F)(F)F (configuration not stated)  growth inhibition            %         2.2
46      O=[N+]([O-])c1ccc(-n2nnc3ccccc32)nc1  growth inhibition            %       -4.85
